experiment: Lipophilicity by experimental HPLC retention time; format: physicochemical; details: HPLC retention time as measure of lipophilicity; C18, 10 to 90% CH3CN/H2O with 0.1% FA over 25 min
VALUE_KIND: HPLC (min)
Provide only the numeric value, understood in min.

{"MOLECULE": "CC(C)[C@H]1C(=O)NC[C@@H](NC(=O)c2nc3ccccc3cc2O)C(=O)N2CCCC[C@H]2C(=O)NCC(=O)N(C)CC(=O)N(C)C2(CC2)C(=O)NC[C@@H](NC(=O)c2nc3ccccc3cc2O)C(=O)N2CCCC[C@H]2C(=O)NCC(=O)N(C)CC(=O)N1C [Compound 109]", "UNIT_ANNOTATION": "min", "OBSERVED_MEASUREMENT": 15.4}
{"MOLECULE": "CC(C)[C@H]1C(=O)NC[C@@H](NC(=O)c2nc3ccccc3cc2O)C(=O)N2CCCC[C@H]2C(=O)NCC(=O)N(C)CC(=O)N2CCC[C@H]2C(=O)NC[C@@H](NC(=O)c2nc3ccccc3cc2O)C(=O)N2CCCC[C@H]2C(=O)NCC(=O)N(C)CC(=O)N1C [Compound 77]", "UNIT_ANNOTATION": "min", "OBSERVED_MEASUREMENT": 15.0}

Please turn your attention to the following entry.
In plain terms, CC(C)[C@H]1C(=O)NC[C@@H](NC(=O)c2nc3ccccc3cc2O)C(=O)N2CCCC[C@H]2C(=O)NCC(=O)N(C)CC(=O)N(C)[C@@H]([C@@H](C)OC(C)(C)C)C(=O)NC[C@@H](NC(=O)c2nc3ccccc3cc2O)C(=O)N2CCCC[C@H]2C(=O)NCC(=O)N(C)CC(=O)N1C [Compound 54] has a documented HPLC of 18.4

Values from patent US20240376154A1
